# credit: patent US8343983B2

# Tested on: cancer cells
# Test Description: MTS assay: inhibition of cell growth (formazan absorbance at 492 nm after 72 hours with test compound)
# Assay type: cell-based
# Experimental Parameters: Homo sapiens, PC-3 cells, inhibition class, read-out: PC-3, MTS 72 hours at 10 uM
Assay Endpoint: inhibition at 10 µM

Just so you know, measured inhibition at 10 µM for `COc1ccc(CN2CCc3n[nH]c4nc(NCc5ccc(Cl)cc5)nc2c34)cc1` came out at < 50%

Just so you know, measured inhibition at 10 µM for O=C(NCc1ccccc1)C1CN(Cc2ccccc2)c2nc(NCc3ccco3)nc3[nH]nc1c23 (centres unmarked) came out at < 50%

Just so you know, measured inhibition at 10 µM for `c1ccc(CN2CCc3n[nH]c4nc(NCc5ccc6c(c5)CCO6)nc2c34)cc1` came out at < 50%

Just so you know, measured inhibition at 10 µM for `CSc1nc2c3c(n[nH]c3n1)CCN2Cc1ccccc1` came out at < 50%

Just so you know, measured inhibition at 10 µM for `Fc1ccc(CCNc2nc3c4c(n[nH]c4n2)CCN3)cc1` came out at < 50%

Just so you know, measured inhibition at 10 µM for O=C(NCCc1ccccc1)C1CN(Cc2ccccc2)c2nc(NCc3ccccc3)nc3[nH]nc1c23 (centres unmarked) came out at > 79%

Just so you know, measured inhibition at 10 µM for O=C(NCc1ccccc1)C1CN(Cc2ccccc2)c2nc(NCc3ccccc3Cl)nc3[nH]nc1c23 (centres unmarked) came out at 50 to 79%

Just so you know, measured inhibition at 10 µM for `CN(Cc1cccc2ccccc12)c1nc2c3c(n[nH]c3n1)CCN2Cc1ccccc1` came out at < 50%

====

# System: cancer cells
# Test Description: MTS assay: inhibition of cell growth (formazan absorbance at 492 nm after 72 hours with test compound)
# Assay type: cell-based
# Experimental Parameters: Homo sapiens, PC-3 cells, inhibition class, read-out: PC-3, MTS 72 hours at 10 uM
Assay Endpoint: inhibition at 10 µM

Before answering, review these 4 worked examples.
[
  {
    "Chemical Smiles": "COc1ccc(CN2CCc3n[nH]c4nc(N5CCN(Cc6ccccc6)CC5)nc2c34)cc1",
    "inhibition at 10 µM": "< 50%"
  },
  {
    "Chemical Smiles": "Cc1cccc(N2CCN(c3nc4c5c(n[nH]c5n3)CCN4Cc3ccccc3)CC2)n1",
    "inhibition at 10 µM": "< 50%"
  },
  {
    "Chemical Smiles": "c1ccc(CN2CCc3n[nH]c4nc(NCC5CCCCC5)nc2c34)cc1",
    "inhibition at 10 µM": "< 50%"
  },
  {
    "Chemical Smiles": "CSc1nc2c3c(nn(C)c3n1)CCN2Cc1ccccc1",
    "inhibition at 10 µM": "> 79%"
  }
]

Then this compound:
Just so you know, measured inhibition at 10 µM for `Cc1ccccc1CCNc1nc2c3c(n[nH]c3n1)CCN2Cc1ccccc1` came out at < 50%

====

# Tested on: cancer cells
# Test Description: MTS assay: inhibition of cell growth (formazan absorbance at 492 nm after 72 hours with test compound)
# Assay type: cell-based
# Experimental Parameters: Homo sapiens, PC-3 cells, inhibition class, read-out: PC-3, MTS 72 hours at 10 uM
Attribute: inhibition at 10 µM

Just so you know, measured inhibition at 10 µM for `c1ccc(CN2CCc3n[nH]c4nc(N5CCN(Cc6ccccn6)CC5)nc2c34)cc1` came out at < 50%

====

# Tested on: cancer cells
# Test Description: MTS assay: inhibition of cell growth (formazan absorbance at 492 nm after 72 hours with test compound)
# Assay type: cell-based
# Experimental Parameters: Homo sapiens, PC-3 cells, inhibition class, read-out: PC-3, MTS 72 hours at 10 uM
Assay Endpoint: inhibition at 10 µM

Before answering, review these 5 worked examples.
[
  {
    "Compound": "c1ccc(CNc2nc3c4c(n[nH]c4n2)CCN3)cc1 [Compound 101]",
    "Assay Endpoint": "inhibition at 10 µM",
    "Endpoint Result": "50 to 79%"
  },
  {
    "Compound": "CN(CCc1ccccc1)c1nc2c3c(n[nH]c3n1)CCN2Cc1ccccc1 [Compound 81]",
    "Assay Endpoint": "inhibition at 10 µM",
    "Endpoint Result": "< 50%"
  },
  {
    "Compound": "c1cncc(CNc2nc3c4c(n[nH]c4n2)CCN3)c1 [Compound 121]",
    "Assay Endpoint": "inhibition at 10 µM",
    "Endpoint Result": "< 50%"
  },
  {
    "Compound": "COc1ccc(CN2CCCc3n[nH]c4nc(NCc5cccnc5)nc2c34)cc1 [Compound 251]",
    "Assay Endpoint": "inhibition at 10 µM",
    "Endpoint Result": "> 79%"
  },
  {
    "Compound": "COc1cc(CNc2nc3c4c(n[nH]c4n2)CCN3Cc2ccccc2)cc(OC)c1 [Compound 82]",
    "Assay Endpoint": "inhibition at 10 µM",
    "Endpoint Result": "< 50%"
  }
]

Just so you know, measured inhibition at 10 µM for c1ccc(CNc2nc3c4c(n[nH]c4n2)CCN3c2ccccc2)cc1 [Compound 208] came out at < 50%

Just so you know, measured inhibition at 10 µM for COc1ccc2c(CCNc3nc4c5c(n[nH]c5n3)CCN4Cc3ccccc3)c[nH]c2c1 [Compound 98] came out at > 79%

Just so you know, measured inhibition at 10 µM for O=C(NCc1ccc2c(c1)OCO2)C1CN(Cc2ccccc2)c2nc(NCc3ccccc3)nc3[nH]nc1c23 (stereo not drawn) [Compound 234] came out at > 79%

Just so you know, measured inhibition at 10 µM for O=C(NCC1CCCCC1)C1CN(Cc2ccccc2)c2nc(NCc3ccccc3)nc3[nH]nc1c23 (stereo not drawn) [Compound 240] came out at > 79%

====

# Tested on: cancer cells
# Test Description: MTS assay: inhibition of cell growth (formazan absorbance at 492 nm after 72 hours with test compound)
# Format: cell-based
# Experimental Parameters: Homo sapiens, PC-3 cells, inhibition class, read-out: PC-3, MTS 72 hours at 10 uM
Attribute: inhibition at 10 µM

[
  {
    "Compound": "c1ccc(CN2CCN(CCNc3nc4c5c(n[nH]c5n3)CCN4Cc3ccccc3)CC2)cc1 [Compound 33]",
    "inhibition at 10 µM": "< 50%"
  }
]

Just so you know, measured inhibition at 10 µM for c1ccc(CN2CCc3n[nH]c4nc(NCCOc5ccccc5)nc2c34)cc1 [Compound 34] came out at < 50%

Just so you know, measured inhibition at 10 µM for CCOC(=O)C1CN(Cc2ccccc2)c2nc(SC)nc3[nH]nc1c23 (centres unmarked) [Compound 222] came out at < 50%

Just so you know, measured inhibition at 10 µM for CN(C)CCCNc1nc2c3c(n[nH]c3n1)CCN2Cc1ccccc1 [Compound 91] came out at > 79%

Just so you know, measured inhibition at 10 µM for N#Cc1cccnc1N1CCN(c2nc3c4c(n[nH]c4n2)CCN3Cc2ccccc2)CC1 [Compound 8] came out at < 50%

Just so you know, measured inhibition at 10 µM for Cc1cccc2c(CCNc3nc4c5c(n[nH]c5n3)CCN4Cc3ccccc3)c[nH]c12 [Compound 73] came out at < 50%

Just so you know, measured inhibition at 10 µM for COc1ccc(CN2CCc3n[nH]c4nc(NCCc5c[nH]c6ccccc56)nc2c34)cc1 [Compound 104] came out at < 50%

Just so you know, measured inhibition at 10 µM for COCC(C)Nc1nc2c3c(n[nH]c3n1)CCN2Cc1ccccc1 (centres unmarked) [Compound 78] came out at > 79%

====

# Tested on: cancer cells
# Test Description: MTS assay: inhibition of cell growth (formazan absorbance at 492 nm after 72 hours with test compound)
# Type: cell-based
# Experimental Parameters: Homo sapiens, PC-3 cells, inhibition class, read-out: PC-3, MTS 72 hours at 10 uM
Attribute: inhibition at 10 µM

Before answering, review these 8 worked examples.
[
  {
    "Molecule": "c1ccc(CN2CCc3n[nH]c4nc(NCc5ccco5)nc2c34)cc1 [Compound 54]",
    "Assay Endpoint": "inhibition at 10 µM",
    "Endpoint Result": "< 50%"
  },
  {
    "Molecule": "COc1ccc(CN2CCc3n[nH]c4nc(N5CCOCC5)nc2c34)cc1 [Compound 110]",
    "Assay Endpoint": "inhibition at 10 µM",
    "Endpoint Result": "< 50%"
  },
  {
    "Molecule": "COc1ccc(CN2CCCc3n[nH]c4nc(N5CCCC5)nc2c34)cc1 [Compound 244]",
    "Assay Endpoint": "inhibition at 10 µM",
    "Endpoint Result": "< 50%"
  },
  {
    "Molecule": "Brc1ccc(CCNc2nc3c4c(n[nH]c4n2)CCN3Cc2ccccc2)cc1 [Compound 97]",
    "Assay Endpoint": "inhibition at 10 µM",
    "Endpoint Result": "< 50%"
  },
  {
    "Molecule": "COc1ccc(CN2CCCc3n[nH]c4nc(NCc5ccccc5)nc2c34)cc1 [Compound 247]",
    "Assay Endpoint": "inhibition at 10 µM",
    "Endpoint Result": "< 50%"
  },
  {
    "Molecule": "COc1ccccc1N1CCN(c2nc3c4c(n[nH]c4n2)CCN3Cc2ccccc2)CC1 [Compound 43]",
    "Assay Endpoint": "inhibition at 10 µM",
    "Endpoint Result": "> 79%"
  },
  {
    "Molecule": "COc1ccc(CN2CCc3n[nH]c4nc(NC5Cc6ccccc6C5)nc2c34)cc1 [Compound 106]",
    "Assay Endpoint": "inhibition at 10 µM",
    "Endpoint Result": "< 50%"
  },
  {
    "Molecule": "Brc1cccc(CCNc2nc3c4c(n[nH]c4n2)CCN3Cc2ccccc2)c1 [Compound 28]",
    "Assay Endpoint": "inhibition at 10 µM",
    "Endpoint Result": "> 79%"
  }
]

The measured inhibition at 10 µM that c1ccc(CN2CCc3n[nH]c4nc(NCCc5ccccn5)nc2c34)cc1 [Compound 65] showed for cancer cells is < 50%
